- target.of.assay: T1, human VEGF (human, UniProt P15692 207-395, biotinylated (site not stated))
- T1 construct: Biotinylated human VEGF generated internally; also called hVEGF; hVEGF-biotin
- T1 sequence: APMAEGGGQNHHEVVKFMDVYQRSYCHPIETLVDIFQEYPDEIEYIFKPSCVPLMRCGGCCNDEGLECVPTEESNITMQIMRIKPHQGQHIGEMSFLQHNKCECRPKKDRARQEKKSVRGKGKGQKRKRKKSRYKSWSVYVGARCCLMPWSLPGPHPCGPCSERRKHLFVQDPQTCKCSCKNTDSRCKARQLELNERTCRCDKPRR
- protocol: Biacore SPR, hVEGF
experimental.readout: kon (M⁻¹ s⁻¹)
Use M⁻¹ s⁻¹ as the unit, but write only the number.

In: Fill in: kon of LC4T (Fab, V domains shown, Light chain CDR variant LC4 with tagged NVS4 heavy chain) VH: EVQLVESGGGLVQPGGSLRLSCTASGFSLTDYYYMTWVRQAPGKGLEWVGFIDPDDDPYYATWAKGRFTISRDNSKNTLYLQMNSLRAEDTAVYYCAGGDHNSGWGLDIWGQGTLVTVSS VL: EIVMTQSPSTLSASVGDRVIITCQASQKIHSWLAWYQQKPGKAPKLLIYQASTLAKGVPSRFSGSGSGAEFTLTISSLQPDDFATYYCQNVYLASTNGANFGQGTKLTVLK is ___
Out: 9.1e+07

In: Input LC3T (Fab, V domains shown, Light chain CDR variant LC3 with tagged NVS4 heavy chain) VH: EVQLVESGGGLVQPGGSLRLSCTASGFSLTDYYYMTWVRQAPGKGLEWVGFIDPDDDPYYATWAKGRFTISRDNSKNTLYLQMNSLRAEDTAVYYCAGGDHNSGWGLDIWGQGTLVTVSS VL: EIVMTQSPSTLSASVGDRVIITCQASQKIHSWLAWYQQKPGKAPKLLIYQASKLAKGVPSRFSGSGSGAEFTLTISSLQPDDFATYYCQNVYLASRNGANFGQGTKLTVLK
Out: 1.34e+08

In: # repeat for NVS4 heavy chain variant D55Q + D56N (Fab, V domains shown, CDR variant of NVS4) VH: EVQLVESGGGLVQPGGSLRLSCTASGFSLTDYYYMTWVRQAPGKGLEWVGFIDPQNDPYYATWAKGRFTISRDNSKNTLYLQMNSLRAEDTAVYYCAGGDHNSGWGLDIWGQGTLVTVSS VL: EIVMTQSPSTLSASVGDRVIITCQASEIIHSWLAWYQQKPGKAPKLLIYLASTLASGVPSRFSGSGSGAEFTLTISSLQPDDFATYYCQNVYLASTNGANFGQGTKLTVLK
Out: 7.22e+06

In: How about this binder: HC8T (Fab, V domains shown, Tagged heavy chain CDR variant HC8 with NVS4 light chain) VH: EVQLVESGGGLVQPGGSLRLSCTASGFSLTKYYYMTWVRQAPGKGLEWVGFIKPDKKPKYATWAKGRFTISRDNSKNTLYLQMNSLRAEDTAVYYCAGGDHNSGWGLDIWGQGTLVTVSS VL: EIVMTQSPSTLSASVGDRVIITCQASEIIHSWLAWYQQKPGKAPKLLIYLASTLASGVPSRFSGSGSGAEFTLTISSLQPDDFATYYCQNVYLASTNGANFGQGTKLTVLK
Out: 2.74e+06

In: Now give it for NVS4 heavy chain variant D55Q (Fab, V domains shown, CDR variant of NVS4) VH: EVQLVESGGGLVQPGGSLRLSCTASGFSLTDYYYMTWVRQAPGKGLEWVGFIDPQDDPYYATWAKGRFTISRDNSKNTLYLQMNSLRAEDTAVYYCAGGDHNSGWGLDIWGQGTLVTVSS VL: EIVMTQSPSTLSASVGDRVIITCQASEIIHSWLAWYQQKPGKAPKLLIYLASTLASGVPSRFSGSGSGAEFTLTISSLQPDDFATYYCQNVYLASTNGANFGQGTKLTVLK too.
Out: 6.57e+06
